Molecular target: Recombinant STAT6 protein (STAT6(W123-T658)) (Homo sapiens, UniProt P42226)
Construct: STAT6(W123-T658)
Test: STAT6 Fluorescence Polarization (FP) Assay
Conditions: STAT6(W123-T658) 250 nM, probe 5-FAM-ApYKPFQDLI-NH2 2 nM, 45-minute incubation
pIC50: −log10 of the molar value.
Readout kind: pIC50

Known results for compounds:
- O=C(N[C@H]1C[C@@H]2C[C@@H]2C[C@H]2CC[C@@H](C(=O)N3CC(Cc4ccc(F)cc4F)C3)N2C1=O)c1cc2cc(CP(=O)(O)O)ccc2s1 [Example 377]: 4.52 to 5.52
- O=C(N[C@H]1C[C@H]2C[C@H]2C[C@H]2CC[C@@H](C(=O)N3CC(c4cnccc4N4CCOCC4)C3)N2C1=O)c1cc2cc([C@@H](F)P(=O)(O)O)ccc2s1 (single isomer, unassigned) [Example 391]: < 4.52
- CN=S(C)(=O)CC1CN(C(=O)[C@@H]2CC[C@@H]3C[C@@H]4C[C@@H]4C[C@H](NC(=O)c4cc5cc(C(F)(F)P(=O)(O)O)ccc5s4)C(=O)N32)C1 (stereo partly drawn) [Compound 72]: 4.52 to 5.52
- O=C(N[C@H]1C[C@H]2C[C@H]2C[C@H]2CC[C@@H](C(=O)NCc3c[nH]c4ncccc34)N2C1=O)c1cc2cc(C(F)(F)P(=O)(O)O)ccc2s1 [Compound 124]: 5.52 to 6.52
- C[C@]12C[C@H]3CC[C@@H](C(=O)N4CC(c5cccnc5)C4)N3C(=O)[C@@H](NC(=O)c3cc4cc(CP(=O)(O)O)ccc4s3)C[C@H]1C2 [Example 238]: < 4.52

Field: next compound
Give its pIC50 value. Item: N#C[C@@H]1CN(C(=O)[C@@H]2CC[C@@H]3C[C@@H]4C[C@@H]4C[C@H](NC(=O)c4cc5cc(C(F)(F)P(=O)(O)O)ccc5s4)C(=O)N32)C[C@H]1c1ccccc1 (relative stereo) [Compound 11] ≥ 6.52

----------
Molecular target: Recombinant STAT6 protein (STAT6(W123-T658)) (Homo sapiens)
Construct: STAT6(W123-T658)
Sequence (P42226 123-658): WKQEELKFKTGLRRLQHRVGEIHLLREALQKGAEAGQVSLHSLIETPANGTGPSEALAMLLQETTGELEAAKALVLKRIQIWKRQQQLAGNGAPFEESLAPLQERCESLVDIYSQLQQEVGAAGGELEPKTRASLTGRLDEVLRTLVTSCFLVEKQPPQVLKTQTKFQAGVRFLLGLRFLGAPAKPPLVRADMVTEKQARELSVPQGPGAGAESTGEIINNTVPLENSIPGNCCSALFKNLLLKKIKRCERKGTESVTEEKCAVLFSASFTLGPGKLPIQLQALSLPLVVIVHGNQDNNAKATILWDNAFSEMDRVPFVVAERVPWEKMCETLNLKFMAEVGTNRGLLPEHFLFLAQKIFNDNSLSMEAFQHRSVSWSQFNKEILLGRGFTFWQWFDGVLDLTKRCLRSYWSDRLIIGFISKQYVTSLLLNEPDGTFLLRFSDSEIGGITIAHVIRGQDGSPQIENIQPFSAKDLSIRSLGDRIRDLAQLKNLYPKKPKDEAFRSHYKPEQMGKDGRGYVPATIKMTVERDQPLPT
Assay: STAT6 Fluorescence Polarization (FP) Assay
Conditions: STAT6(W123-T658) 250 nM, probe 5-FAM-ApYKPFQDLI-NH2 2 nM, 45-minute incubation
pIC50: −log10 of the molar value.
A collection of molecules and their measured pIC50

Known results for molecules:
* CC(=O)N1CCC2C1CN2C(=O)[C@@H]1CC[C@@H]2C[C@H]3C[C@H]3C[C@H](NC(=O)c3cc4cc(C(F)P(=O)(O)O)ccc4s3)C(=O)N21 (stereo in doubt) | 4.52 to 5.52
* O=C(N[C@H]1C[C@@H]2C[C@@H]2C[C@H]2CC[C@@H](C(=O)N[C@H]3CNC[C@@H]3F)N2C1=O)c1cc2cc(CP(=O)(O)O)ccc2s1 | < 4.52
* O=C(N[C@H]1C[C@@H]2C[C@@H]2C[C@H]2CC[C@@H](C(=O)N3CCOc4cccnc43)N2C1=O)c1cc2cc(C(F)P(=O)(O)O)ccc2s1 (some centres unmarked) | 4.52 to 5.52
* O=C(N[C@H]1C[C@@H]2C[C@@H]2C[C@H]2CC[C@@H](C(=O)Nc3ccc(-c4ccccc4)cc3)N2C1=O)c1cc2cc(C(F)(F)P(=O)(O)O)ccc2s1 [Example 3] | 5.52 to 6.52
* Cc1cccc(C2CN(C(=O)[C@@H]3CC[C@@H]4C[C@@H]5C[C@@H]5C[C@H](NC(=O)c5cc6cc(C(F)(F)P(=O)(O)O)ccc6s5)C(=O)N43)C2)n1 | 5.52 to 6.52

Can you look up pIC50 on Recombinant STAT6 protein (STAT6(W123-T658)) (Homo sapiens) for `O=C(N[C@H]1C[C@@H]2C[C@@H]2C[C@H]2CC[C@@H](C(=O)N3CC(Cc4ccncc4)C3)N2C1=O)c1cc2cc(CP(=O)(O)O)ccc2s1` ? < 4.52

Can you look up pIC50 on Recombinant STAT6 protein (STAT6(W123-T658)) (Homo sapiens) for `O=C(N[C@H]1C[C@H]2C[C@H]2C[C@H]2CC[C@@H](C(=O)N3CC(n4ccnc4)C3)N2C1=O)c1cc2cc(CP(=O)(O)O)ccc2s1` ? < 4.52

Can you look up pIC50 on Recombinant STAT6 protein (STAT6(W123-T658)) (Homo sapiens) for `O=C(N[C@H]1C[C@@H]2C[C@@H]2C[C@H]2CC[C@@H](C(=O)N3CCN(C(=O)[C@H]4CCOC4)CC3)N2C1=O)c1cc2cc(C(F)(F)P(=O)(O)O)ccc2s1` ? 4.52 to 5.52
